- SYSTEM_NAME: Cdc42 activated mutant (human), GST fusion
- ASSAY_PROTOCOL: constitutively active Cdc42 fluorescent GTP binding inhibition – biochemical, oxadiazole analogs, multiplex bead flow cytometry, Ki, SAR follow-up (AID 2009)
- CONDITION_DETAILS: Bead-based flow cytometry, Bodipy-FL-GTP binding; measured here: Ki calculated from EC50
METRIC_NAME: pKi
Schema: pKi number; meaning minus log10 of the concentration expressed in molar units.

So, COc1ccc(-c2noc(CCC(=O)N3CCN(c4ccccc4Cl)CC3)n2)cc1 ? Its pKi was 6.51

So, Cc1ccc(C)c(N2CCN(C(=O)CCc3nc(-c4cccc(Br)c4)no3)CC2)c1 ? Its pKi was 6.44

So, COc1cccc(-c2noc(CCC(=O)N3CCN(c4cc(C)ccc4C)CC3)n2)c1 ? Its pKi was 6.24

So, COc1ccc(-c2noc(CCC(=O)N3CCN(c4ccccc4)CC3)n2)cc1 ? Its pKi was 6.96

So, COc1ccc(-c2noc(CCC(=O)N3CCN(c4cc(C)ccc4C)CC3)n2)cc1 ? Its pKi was 6.46

So, COc1ccc(-c2ccc(CCC(=O)N3CCN(c4cc(C)ccc4C)CC3)s2)cc1 ? Its pKi was 6.34

So, COc1ccc(-c2noc(CCC(=O)N3CCN(c4cccc(C)c4)CC3)n2)cc1 ? Its pKi was 6.44

So, COc1ccc(-c2noc(CCC(=O)N3CCN(c4cccc(OC)c4)CC3)n2)cc1 ? Its pKi was 6.12

So, COc1ccc(-c2noc(CCC(=O)N3CCN(c4cccc(Cl)c4)CC3)n2)cc1 ? Its pKi was 5.96

###

- SYSTEM_NAME: Cdc42 activated mutant (human), GST fusion
- ASSAY_PROTOCOL: constitutively active Cdc42 fluorescent GTP binding inhibition – biochemical, oxadiazole analogs, multiplex bead flow cytometry, Ki, SAR follow-up (AID 2009)
- CONDITION_DETAILS: Bead-based flow cytometry, Bodipy-FL-GTP binding; measured here: Ki calculated from EC50
METRIC_NAME: pKi
Schema: pKi number; meaning minus log10 of the concentration expressed in molar units.

So, COc1ccc(-c2noc(CCCCC(=O)N3CCN(c4cc(C)ccc4C)CC3)n2)cc1 ? Its pKi was 5.57

So, COc1ccc(-c2coc(CCC(=O)N3CCN(c4cc(C)ccc4C)CC3)n2)cc1 ? Its pKi was 6.59

So, COc1ccc(-c2noc(CCC(=O)N3CCN(c4ccccc4C(F)(F)F)CC3)n2)cc1 ? Its pKi was 6.51

So, COc1ccc(-c2noc(CCC(=O)N3CCN(c4ccccc4Br)CC3)n2)cc1 ? Its pKi was 6.66

So, COc1ccc(-c2noc(CCC(=O)N3CCN(c4cccc(F)c4)CC3)n2)cc1 ? Its pKi was 6.77

So, Cc1ccc(C)c(N2CCN(C(=O)CCc3nc(-c4ccc(F)cc4)no3)CC2)c1 ? Its pKi was 7.00

So, Cc1ccc(C)c(N2CCN(C(=O)CCc3nc(-c4ccccc4Cl)no3)CC2)c1 ? Its pKi was 6.82

So, Cc1cccc(-c2noc(CCC(=O)N3CCN(c4cc(C)ccc4C)CC3)n2)c1 ? Its pKi was 6.54

So, COc1ccc(-c2noc(CCC(=O)N3CCN(c4ccc(C)cc4)CC3)n2)cc1 ? Its pKi was 6.72

So, Cc1ccc(C)c(N2CCN(C(=O)CCc3nc(-c4cccc(Cl)c4)no3)CC2)c1 ? Its pKi was 6.22

###

- SYSTEM_NAME: Cdc42 activated mutant (human), GST fusion
- ASSAY_PROTOCOL: constitutively active Cdc42 fluorescent GTP binding inhibition – biochemical, oxadiazole analogs, multiplex bead flow cytometry, Ki, SAR follow-up (AID 2009)
- CONDITION_DETAILS: Bead-based flow cytometry, Bodipy-FL-GTP binding
The source made the active and inactive calls.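 Rule for the calls: active = EC50 of 30 microM or lower and a span of response of at least a set limit; inactive = the rest.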
METRIC_NAME: EC50

Some entries whose results are on file:
In [3]: df
Out[3]:
                         chemical_structure     experimental_value
0  COc1ccccc1-c1noc(CCC(=O)N2CCN(c3cc(C)ccc3C)CC2)n1                4910 nM
1  COc1ccc(-c2noc(CCC(=O)N3CCN(c4ccc(F)cc4)CC3)n2)cc1               inactive
2  COc1ccc(-c2noc(CCC(=O)N3CCN(c4cccc(C(F)(F)F)c4)CC3)n2)cc1  > 30000 nM (inactive)
3  COc1ccc(-c2coc(CCC(=O)N3CCN(c4cc(C)ccc4C)CC3)n2)cc1                1680 nM

So, COc1ccc(-c2ccc(CCC(=O)N3CCN(c4cc(C)ccc4C)CC3)[nH]2)cc1 ? Its EC50 was > 30000 nM (inactive)

So, Cc1ccc(C)c(N2CCN(C(=O)CCc3nc(-c4ccccc4)no3)CC2)c1 ? Its EC50 was 621 nM

So, Cc1cccc(-c2noc(CCC(=O)N3CCN(c4cc(C)ccc4C)CC3)n2)c1 ? Its EC50 was 1850 nM

###

- SYSTEM_NAME: Cdc42 activated mutant (human), GST fusion
- ASSAY_PROTOCOL: constitutively active Cdc42 fluorescent GTP binding inhibition – biochemical, oxadiazole analogs, multiplex bead flow cytometry, Ki, SAR follow-up (AID 2009)
- CONDITION_DETAILS: Bead-based flow cytometry, Bodipy-FL-GTP binding; measured here: Ki calculated from EC50
I'd be grateful if you could share measured Ki for these entries.
Give the value, in units of nM, as a plain number.

So, COc1ccc(-c2noc(CCC(=O)N3CCN(c4ccc(F)cc4)CC3)n2)cc1 ? Its Ki was 140

So, Cc1ccc(C)c(N2CCN(C(=O)CCc3nc(-c4ccc(Cl)cc4)no3)CC2)c1 ? Its Ki was 260

So, COc1ccc(-c2noc(CCC(=O)N3CCN(c4ccccc4F)CC3)n2)cc1 ? Its Ki was 170

So, COc1ccc(-c2noc(CCC(=O)N3CCC(c4cc(C)ccc4C)CC3)n2)cc1 ? Its Ki was 250

So, COc1ccc(-c2noc(CCCC(=O)N3CCN(c4cc(C)ccc4C)CC3)n2)cc1 ? Its Ki was 800

###

- SYSTEM_NAME: Cdc42 activated mutant (human), GST fusion
- ASSAY_PROTOCOL: constitutively active Cdc42 fluorescent GTP binding inhibition – biochemical, oxadiazole analogs, multiplex bead flow cytometry, Ki, SAR follow-up (AID 2009)
- CONDITION_DETAILS: Bead-based flow cytometry, Bodipy-FL-GTP binding; measured here: Ki calculated from EC50
METRIC_NAME: Ki (nM)
Give the value, in units of nM, as a plain number.

Given the molecule COc1ccc(-c2cccc(CCC(=O)N3CCN(c4cc(C)ccc4C)CC3)c2)cc1 and test system Cdc42 activated mutant (human), GST fusion, the measured Ki is 630

Given the molecule Cc1ccc(C)c(N2CCN(C(=O)CCc3nc(-c4ccccc4Br)no3)CC2)c1 and test system Cdc42 activated mutant (human), GST fusion, the measured Ki is 180

Given the molecule COc1ccc(-c2noc(CC(=O)N3CCN(c4cc(C)ccc4C)CC3)n2)cc1 and test system Cdc42 activated mutant (human), GST fusion, the measured Ki is 1770

Given the molecule Cc1ccc(-c2noc(CCC(=O)N3CCN(c4cc(C)ccc4C)CC3)n2)cc1 and test system Cdc42 activated mutant (human), GST fusion, the measured Ki is 470

Given the molecule COc1ccc(-c2noc(CCC(=O)N3CCN(c4cccc(C)c4C)CC3)n2)cc1 and test system Cdc42 activated mutant (human), GST fusion, the measured Ki is 210

Given the molecule Cc1ccc(C)c(N2CCN(C(=O)CCc3nc(-c4ccc(C(F)(F)F)cc4)no3)CC2)c1 and test system Cdc42 activated mutant (human), GST fusion, the measured Ki is 770

Given the molecule COc1ccc(-c2noc(CCC(=O)N3CCN(c4ccc(Cl)cc4)CC3)n2)cc1 and test system Cdc42 activated mutant (human), GST fusion, the measured Ki is 20

Given the molecule COc1ccc(-c2cc(CCC(=O)N3CCN(c4cc(C)ccc4C)CC3)on2)cc1 and test system Cdc42 activated mutant (human), GST fusion, the measured Ki is 220

Given the molecule COc1ccccc1-c1noc(CCC(=O)N2CCN(c3cc(C)ccc3C)CC2)n1 and test system Cdc42 activated mutant (human), GST fusion, the measured Ki is 760

Given the molecule Cc1ccc(C)c(N2CCN(C(=O)CCc3nc(-c4cccc(F)c4)no3)CC2)c1 and test system Cdc42 activated mutant (human), GST fusion, the measured Ki is 280

Given the molecule Cc1ccc(C)c(N2CCN(C(=O)CCc3nc(-c4ccc(N(C)C)cc4)no3)CC2)c1 and test system Cdc42 activated mutant (human), GST fusion, the measured Ki is 260

Given the molecule Cc1ccc(C)c(N2CCN(C(=O)CCc3nc(-c4cccc(C(F)(F)F)c4)no3)CC2)c1 and test system Cdc42 activated mutant (human), GST fusion, the measured Ki is 410

Given the molecule Cc1ccc(C)c(N2CCN(C(=O)CCc3nc(-c4ccccc4C)no3)CC2)c1 and test system Cdc42 activated mutant (human), GST fusion, the measured Ki is 240

Given the molecule COc1ccc(-c2noc(CCC(=O)N3CCN(c4ccccc4OC)CC3)n2)cc1 and test system Cdc42 activated mutant (human), GST fusion, the measured Ki is 480

Given the molecule Cc1ccc(C)c(N2CCN(C(=O)CCc3nc(-c4ccccc4F)no3)CC2)c1 and test system Cdc42 activated mutant (human), GST fusion, the measured Ki is 230
